Reference source: patent US20260132123A1

# experimentalSystem: 17β-HSD10 (Homo sapiens, UniProt Q99714)
# Construct: Histev (histidine tag with TEV site) (N, cleaved yes)
# test: 17β-HSD10 (ABAD) enzyme inhibition assay, NADH oxidation read at 340 nm (primary screen and dose response)
# condition: recombinant 17βHSD10 enzyme assay
assayReadout: EC50 (nM)

Recorded results for 5 compounds are shown here.
compound	EC50, nM
Cc1ccsc1C(=O)N1CCC[C@@H]1c1ccccc1-c1ccc(F)cc1 [ESC1002423]	380
CC(C)CN(C(=O)c1ccccc1F)c1cccc(N(C)Cc2c[nH]nn2)c1 [ESC1002675]	4470
Cc1ccsc1C(=O)N1CCC[C@@H]1c1ccccc1-c1c[nH]nc1C(F)(F)F [ESC1002465]	1510
COc1ccccc1-c1ccccc1[C@@H]1CCCN1C(=O)c1sccc1C [ESC1002325]	309
Cc1ccsc1C(=O)N1CCC[C@H]1c1ccccc1-c1ccc(OC(F)(F)F)cc1 [ESC1002315]	1150

[I] CN(Cc1c[nH]cn1)c1cccc(N(CC2CCC2)C(=O)c2ccccc2F)c1 [ESC1002265]
[II] CNC(=O)CN(C)c1cccc(N(CC(C)C)C(=O)c2ccccc2F)c1 [ESC1002572]
Q: # query: argmin of EC50 over I and II Mark your selection by writing its label.
Ans: I
(I: 955 nM, II: 11200 nM)

----------
# experimentalSystem: 17β-HSD10 in HEK293 mts17β-HSD10 cells (Homo sapiens)
# test: (-)-CHANA enzyme activity cell based assay
# condition: cellular 17β-HSD10, HEK 293 cells, (-)-CHANA probe
assayReadout: EC50 (nM)
Give just the number in nM; leave the unit off.

Q: GET /values?readout=EC50&item= O=C(c1sccc1Cl)N1CCC[C@H]1c1ccccc1-c1cccc(O)c1 (single isomer, unassigned)
Ans: 28

----------
Known ABAD plC50 of a selection of compounds
# experimentalSystem: 17β-HSD10 (Homo sapiens, UniProt Q99714)
# Construct: Histev (histidine tag with TEV site) (N, cleaved yes); made in house; host or cells: E. coli BL21-CodonPlus
# Sequence (Q99714 1-261): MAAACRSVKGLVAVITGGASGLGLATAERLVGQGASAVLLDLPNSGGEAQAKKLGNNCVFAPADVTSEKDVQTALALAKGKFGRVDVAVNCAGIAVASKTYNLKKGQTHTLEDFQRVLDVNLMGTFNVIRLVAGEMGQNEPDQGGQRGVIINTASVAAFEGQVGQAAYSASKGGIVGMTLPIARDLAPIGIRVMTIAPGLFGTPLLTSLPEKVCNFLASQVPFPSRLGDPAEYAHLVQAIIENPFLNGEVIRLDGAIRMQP
# test: 17β-HSD10 (ABAD) enzyme inhibition assay, NADH oxidation read at 340 nm (primary screen and dose response)
# Assay type: biochemical
# condition: primary screening, resynthesized HTS hit compounds
Hey, just send me the number, nothing else.

compound	ABAD plC50
Cc1ccc(C(=O)N(CC(C)C)c2cccc(N(C)Cc3cnc[nH]3)c2)cc1 [ESC1002032]	6.6
CC(C)CN(C(=O)c1ccc(Cl)cc1F)c1cccc(N(C)Cc2cnc[nH]2)c1 [ESC1002042]	6.5
CC(C)CN(C(=O)c1ccncc1)c1cccc(N(C)Cc2cnc[nH]2)c1 [ESC1002034]	5.8

Continue with the compound presented below.
Q: Fill in: ABAD plC50 of COc1cccc(C(=O)N(CC(C)C)c2cccc(N(C)Cc3cnc[nH]3)c2)c1 [ESC1002038] is ___
Ans: 5.7

----------
# experimentalSystem: 17β-HSD10 (Homo sapiens)
# Construct: Histev (histidine tag with TEV site) (N, cleaved yes); made in house; host or cells: E. coli BL21-CodonPlus
# test: 17β-HSD10 (ABAD) enzyme inhibition assay, NADH oxidation read at 340 nm (primary screen and dose response)
# Format: biochemical
# condition: recombinant 17βHSD10 enzyme assay, curve fit
assayReadout: Hill Slope

Solved cases (5 shown):
molecule	Hill Slope
CC(C)OCCN(C(=O)c1ccccc1F)c1cccc(N(C)Cc2c[nH]cn2)c1 [ESC1002267]	0.9
COc1cccc(-c2ccccc2[C@H]2CCCN2C(=O)c2cccs2)c1 [ESC1002425]	1.1
Cc1ccc(C(=O)N(CC(C)C)c2cccc(N(C)Cc3c[nH]cn3)c2)c(C)c1 [ESC1002492]	0.73
Cc1ccsc1C(=O)N1CCC[C@H]1c1ccccc1-c1ccc(OC(F)(F)F)cc1 [ESC1002315]	1.1
COc1ccc(-c2ccccc2[C@H]2CCCN2C(=O)c2sccc2C)cn1 (single isomer, unassigned) [ESC1002162]	1

[1] Cc1ccsc1C(=O)N1CCC[C@@H]1c1ccccc1-c1cnn(C)c1 [ESC1002424]
[2] CC(C)CN(C(=O)c1ccccc1S(C)(=O)=O)c1cccc(N(C)Cc2c[nH]cn2)c1 [ESC1002622]
Q: Between the entries labelled 1 and 2 , which has a larger Hill Slope value on record? Reply with the label of the item you choose.
Ans: 1

----------
# experimentalSystem: 17β-HSD10 (Homo sapiens)
# Construct: Histev (histidine tag with TEV site) (N, cleaved yes); made in house; host or cells: E. coli BL21-CodonPlus
# test: 17β-HSD10 (ABAD) enzyme inhibition assay, NADH oxidation read at 340 nm (primary screen and dose response)
# Type: biochemical
# condition: recombinant 17βHSD10 enzyme assay, curve fit
# Description: Cell pellets of E. coli BL21-CodonPlus cells containing Histev-17β-HSD10 protein were re-suspended for 30 min, 4° C., in lysis buffer (20 mM NaH2PO4, 30 mM imidazole, 500 mM NaCl, 10% (v/v) glycerol, pH 7.5) with the addition of complete ethylenediaminetetraacetic acid (EDTA)-free protease inhibitor tablets (Roche), lysozyme (1 mg/mL), deoxyribonuclease (DNase) (20 μg/mL) and Triton X-100 (0.1% (v/v)). […]
assayReadout: Min. Fit

compound	experimentalSystem	Min. Fit
COc1cccc(-c2ccccc2[C@H]2CCCN2C(=O)c2sccc2F)c1	17β-HSD10 (Homo sapiens)	1
CC(C)CN(C(=O)c1ccc(Cl)s1)c1cccc(N(C)Cc2c[nH]cn2)c1	17β-HSD10 (Homo sapiens)	−5
Cc1ccsc1C(=O)N1CCC[C@@H]1c1ccccc1-c1cn[nH]c1	17β-HSD10 (Homo sapiens)	0
Cc1ccc(C(=O)N(CC(C)C)c2cccc(N(C)Cc3cnc[nH]3)c2)cc1	17β-HSD10 (Homo sapiens)	0
CC(C)CN(C(=O)c1ccccc1F)c1cccc(N(C)Cc2c[nH]c(C(C)C)n2)c1	17β-HSD10 (Homo sapiens)	−3
CN(Cc1c[nH]cn1)c1cccc(N(CC(C)(C)C)C(=O)c2ccccc2F)c1	17β-HSD10 (Homo sapiens)	−1
COc1ccc(-c2ccccc2[C@H]2CCCN2C(=O)c2sccc2C)cc1	17β-HSD10 (Homo sapiens)	0
CC(C)OCCN(C(=O)c1ccccc1F)c1cccc(N(C)Cc2c[nH]cn2)c1	17β-HSD10 (Homo sapiens)	−4
CC(C)CN(C(=O)c1ccccc1F)c1cccc(N(C)Cc2cn[nH]c2I)c1	17β-HSD10 (Homo sapiens)	−6
CCOc1cccc(-c2ccccc2[C@@H]2CCCN2C(=O)c2sccc2Cl)c1 (racemic)	17β-HSD10 (Homo sapiens)	0

[A] Cc1ccsc1C(=O)N1CCC[C@H]1c1ccccc1-c1ccccc1Cl [ESC1002324]
[B] Cc1ccsc1C(=O)N1CCC[C@H]1c1ccccc1-c1cnn(C2CCOCC2)c1
[C] O=C(c1sccc1Cl)N1CCC[C@H]1c1ccccc1-c1cccc(O)c1 (single isomer, unassigned)
[D] O=C(c1sccc1Cl)N1CCC[C@H]1c1ccccc1-c1cccc(O)c1F (single isomer, unassigned)
[E] Cc1ccsc1C(=O)N1CCC[C@@H]1c1ccccc1-c1ccc(C2CC2)cc1
Q: Form: Sort by [Min. Fit] Order [ ascending ] Dear reader, please state the labels in the requested order.
Ans: B, D, C, A, E
(B: −6, D: −4, C: −2, A: 0, E: 1)

----------
# experimentalSystem: 17β-HSD10 (Homo sapiens, UniProt Q99714)
# Construct: Histev (histidine tag with TEV site) (N, cleaved yes); made in house; host or cells: E. coli BL21-CodonPlus
# test: 17β-HSD10 (ABAD) enzyme inhibition assay, NADH oxidation read at 340 nm (primary screen and dose response)
# Type: biochemical
# condition: recombinant 17βHSD10 enzyme assay, curve fit
assayReadout: Max. Fit

molecule	Max. Fit
Cc1n[nH]c(Cc2ccccc2)c1-c1ccccc1O [ESC1002170]	98

[P] COc1ccc(C(=O)N(CC(C)C)c2cccc(N(C)Cc3cnc[nH]3)c2)cc1 [ESC1002182]
[Q] O=C(c1sccc1Cl)N1CCC[C@H]1c1ccccc1-c1cncnc1 (racemic) [ESC1002698]
Q: Returns the identifier with the smallest measured Max. Fit among P and Q . Choose, then provide that item's label.
Ans: Q

----------
# experimentalSystem: 17β-HSD10 (Homo sapiens)
# Construct: Histev (histidine tag with TEV site) (N, cleaved yes); made in house; host or cells: E. coli BL21-CodonPlus
# test: 17β-HSD10 (ABAD) enzyme inhibition assay, NADH oxidation read at 340 nm (primary screen and dose response)
# Format: biochemical
# condition: Table 5; read-out: Mean ABAD pIC50 (converted)
assayReadout: IC50 (µM)

See these solved cases before continuing.
molecule	IC50 (µM)
Cc1ncc(CN(C)c2cccc(N(CC(C)C)C(=O)c3ccccc3F)c2)[nH]1	0.398
COc1cccc(-c2ccccc2[C@@H]2CCCN2C(=O)c2[nH]ncc2Cl)c1 (single isomer, unassigned)	0.105

[a] O=C(c1sccc1Cl)N1CCC[C@H]1c1ccccc1-c1cc(O)ccc1F (single isomer, unassigned)
[b] O=C(c1[nH]ncc1Cl)N1CCC[C@H]1c1ccccc1-c1cccc(O)c1 (single isomer, unassigned)
[c] Cc1ccsc1C(=O)N1CCC[C@H]1c1ccccc1-c1cccc(Cl)c1 (single isomer, unassigned)
Q: // ascending sort on recorded IC50 Rank them, then answer with their labels in that order.
Ans: a, b, c
(a: 0.0347 µM, b: 0.11 µM, c: 0.17 µM)

[P] Cc1ccsc1C(=O)N(CC(C)C)c1cccc(N(C)Cc2c[nH]cn2)c1
[Q] O=C(c1sccc1Cl)N1CCC[C@H]1c1ccccc1-c1cccc(O)c1 (single isomer, unassigned)
Q: Could you tell me which of P and Q has the lower IC50 reading? Response format: the label of the selected entry.
Ans: Q
(Q: 0.0186 µM, P: 0.398 µM)
